Field: IC50. Provide a value for each of the sequences that follow.
test target: HLA-DR DRB1*0701 (DR7) (Homo sapiens, UniProt P01903+P01911, A100R/A102G/A103Q/D57E/D86V/E43K/F76Y/K127E/L162R/M171V/P40G/Q125H/Q99D/R33Q/R42Y/R54Q/S133A/S66F/T210M/V115G/Y107V/Y59L/Y89S)
test description: biochemical
Type: binding
applied conditions: DRB1 *0701
No end group written: not given here.
Give bare numbers, in µM.

Worked examples, 5 sequences total:
monomer sequence: EQTTTSITSLYQLEN
value unit: µM
IC50: 2.23

monomer sequence: KSLLSTNLPYGRTNL
value unit: µM
IC50: 50

monomer sequence: LQQMLLGTLQVVCPG
value unit: µM
IC50: 0.929

monomer sequence: LRTLQQMLLGTLQVV
value unit: µM
IC50: 6.91

monomer sequence: SNLELLRICLLLIQS
value unit: µM
IC50: 1.22

Respectfully, I request IC50 for each entry included below.
1. GRLEYTLKDRRNFDI
2. RETLQEIVLHLEPQN
3. YLVCGERGFFYTPKT
4. ISLLLIQSWLEPVQF
5. ITDSRVLERYLLEAK
6. EHTSLNENITVPDTK
7. LYFVKVDVTGAYDTI

Reply:
4.96
25.9
64.6
0.083
7.5
37.2
5.89
